Origin of measurements: patent US20200071424A1

biological target: cynomolgus monkey EL (cynomolgus monkey); test: Biacore; EL captured by anti-C2-tag Ab; bivalent fit
Output YES for kon not less than 100000 M⁻¹ s⁻¹; output NO otherwise.

Enquiry: Exam item: decide whether the reported kon for h13B3-S2 (antibody, V domains shown) VH: QVQLVQSGAEVKKPGASVKVSCKASGYTFTEYTMHWVRQAPGQGLEWMGSINPYYGGTSYNEKFKDRVTSTRDTSISTAYMELSRLRSDDTVVYYCARYGNYVGYFDYWGQGTTVTVSS VL: EIVLTQSPGTLSLSPGERATLSCRASSSVHYMYWYQQKPGQAPRLLIYYTSNLAPGIPDRFSGSGSGTDFTLTISRLEPEDFAVYYCQQFTSSPYTFGGGTKVEIK is at least 100000 M⁻¹ s⁻¹.
Return: NO

Enquiry: Exam item: decide whether the reported kon for h16B3-S1 (antibody, V domains shown) VH: EVQLVESGGGLVQPGGSLRLSCAASGFTFSGYTMSWVRQAPGKGLEWVSEISFARDRAFYPDTVKGRFTISRDNSKNTLYLQMNSLRAEDTAVYYCAKLGGRNHDYWYFDVWGQGTTVTVSS VL: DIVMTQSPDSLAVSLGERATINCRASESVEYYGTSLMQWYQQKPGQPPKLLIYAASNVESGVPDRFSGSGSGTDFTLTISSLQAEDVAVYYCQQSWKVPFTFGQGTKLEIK is at least 100000 M⁻¹ s⁻¹.
Return: NO

Enquiry: Exam item: decide whether the reported kon for h53A11-S3 (antibody, V domains shown) VH: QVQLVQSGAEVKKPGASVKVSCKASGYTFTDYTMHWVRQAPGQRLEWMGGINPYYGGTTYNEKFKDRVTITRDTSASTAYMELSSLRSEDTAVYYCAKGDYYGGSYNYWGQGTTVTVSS VL: EIVMTQSPATLSVSPGERATLSCRASQDISNSLHWYQQKPGQAPRLLIKYASQSISGIPARFSGSGSGTEFTLTISSLQSEDFAVYYCQQSNSWPYTFGQGTKLEIK is at least 100000 M⁻¹ s⁻¹.
Return: YES

Enquiry: Exam item: decide whether the reported kon for h13B3-S1 (antibody, V domains shown) VH: QVQLVQSGAEVKKPGASVKVSCKASGYTFTEYTMHWVRQAPGQGLEWMGSINPYYGGTSYNEKFKDRVTMTRDTSTSTVYMELSSLRSEDTAVYYCARYGNYVGYFDYWGQGTTVTVSS VL: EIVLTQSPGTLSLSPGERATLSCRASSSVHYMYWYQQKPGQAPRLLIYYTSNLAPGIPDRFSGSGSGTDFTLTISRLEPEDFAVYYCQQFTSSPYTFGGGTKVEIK is at least 100000 M⁻¹ s⁻¹.
Return: NO

Enquiry: Exam item: decide whether the reported kon for h13B3-S4 (antibody, V domains shown) VH: QVQLVQSGAEVKKPGASVKVSCKASGYTFTEYTMHWVRQAPGQGLEWMGSINPYYGGTSYNEKFKDRVTSTRDTSISTAYMELSRLRSDDTVVYYCARYGNYVGYFDYWGQGTTVTVSS VL: EIVLTQSPATLSLSPGERATLSCRASSSVHYMYWYQQKPGQAPRLLIYYTSNLAPGIPARFSGSGSGTDFTLTISSLEPEDFAVYYCQQFTSSPYTFGGGTKVEIK is at least 100000 M⁻¹ s⁻¹.
Return: YES
